Measured protein stability index accompanies every entry in the list below.
B1: TRIM15 (parent)
chain: LLARLRELEQQIWKERDEYITKVS

- Variants of: B1
- ASSAY NAME: protein stability index of a GFP-peptide fusion (GPS, HEK-293T) (PSI 1-6); higher = more stable;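 note: lentivirally expressed fusions sorted by FACS into six bins by GFP to DsRed ratio, PSI derived from sequencing read proportions per bin multiplied by bin number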
- CONDITION: c terminus: a fixed tail appended

[
  {
    "VARIANT STRING": "A3L",
    "protein stability index": 2
  },
  {
    "VARIANT STRING": "L5Q",
    "protein stability index": 2.64
  },
  {
    "VARIANT STRING": "I20A",
    "protein stability index": 1.3
  },
  {
    "VARIANT STRING": "K14F",
    "protein stability index": 1.68
  },
  {
    "VARIANT STRING": "E18G",
    "protein stability index": 1.81
  },
  {
    "VARIANT STRING": "E9R",
    "protein stability index": 2.22
  },
  {
    "VARIANT STRING": "Q11S",
    "protein stability index": 2.51
  },
  {
    "VARIANT STRING": "I20S",
    "protein stability index": 2.18
  },
  {
    "VARIANT STRING": "W13Y",
    "protein stability index": 1.51
  },
  {
    "VARIANT STRING": "E15G",
    "protein stability index": 1.18
  },
  {
    "VARIANT STRING": "R6H",
    "protein stability index": 1.65
  },
  {
    "VARIANT STRING": "A3G",
    "protein stability index": 1.44
  },
  {
    "VARIANT STRING": "T21Q",
    "protein stability index": 2.41
  },
  {
    "VARIANT STRING": "I12V",
    "protein stability index": 1.65
  },
  {
    "VARIANT STRING": "E9C",
    "protein stability index": 2.11
  },
  {
    "VARIANT STRING": "V23F",
    "protein stability index": 1.69
  },
  {
    "VARIANT STRING": "L1Q",
    "protein stability index": 2.83
  },
  {
    "VARIANT STRING": "L2S",
    "protein stability index": 2.34
  },
  {
    "VARIANT STRING": "V23W",
    "protein stability index": 1.7
  },
  {
    "VARIANT STRING": "D17L",
    "protein stability index": 1.04
  },
  {
    "VARIANT STRING": "D17E",
    "protein stability index": 1.78
  },
  {
    "VARIANT STRING": "L1E",
    "protein stability index": 2.2
  }
]
